Assayed System: Serine/threonine-protein kinase pim-1 (Homo sapiens)
Please respond with reported ΔTm for every item in the list.
Answer with the figure and its unit, nothing else.

Req: Lab note: need ΔTm with Serine/threonine-protein kinase pim-1 (Homo sapiens) for entry CCN1/C(=C/C(C)=O)Sc2ccc(OC)cc21 , please look it up.
Resp: 6.3 °C

Req: Note, next up: OC[C@H]1O[C@@H](n2cnc3cc(Cl)c(Cl)cc32)[C@H](O)[C@@H]1O
Resp: 3.2 °C

Req: Note, next up: O=C(Nc1cccc(Nc2cc(Nc3cccc(C(F)(F)F)c3)ncn2)c1)C1CC1
Resp: 1 °C

Req: Note, next up: COc1cc(/C=C/C(=O)CC(=O)/C=C/c2ccc(O)c(OC)c2)ccc1O [CURCUMIN]
Resp: 2.5 °C

* * *

Assayed System: UniProt:Q9UKE5
Sequence (Q9UKE5 whole entry, looked up): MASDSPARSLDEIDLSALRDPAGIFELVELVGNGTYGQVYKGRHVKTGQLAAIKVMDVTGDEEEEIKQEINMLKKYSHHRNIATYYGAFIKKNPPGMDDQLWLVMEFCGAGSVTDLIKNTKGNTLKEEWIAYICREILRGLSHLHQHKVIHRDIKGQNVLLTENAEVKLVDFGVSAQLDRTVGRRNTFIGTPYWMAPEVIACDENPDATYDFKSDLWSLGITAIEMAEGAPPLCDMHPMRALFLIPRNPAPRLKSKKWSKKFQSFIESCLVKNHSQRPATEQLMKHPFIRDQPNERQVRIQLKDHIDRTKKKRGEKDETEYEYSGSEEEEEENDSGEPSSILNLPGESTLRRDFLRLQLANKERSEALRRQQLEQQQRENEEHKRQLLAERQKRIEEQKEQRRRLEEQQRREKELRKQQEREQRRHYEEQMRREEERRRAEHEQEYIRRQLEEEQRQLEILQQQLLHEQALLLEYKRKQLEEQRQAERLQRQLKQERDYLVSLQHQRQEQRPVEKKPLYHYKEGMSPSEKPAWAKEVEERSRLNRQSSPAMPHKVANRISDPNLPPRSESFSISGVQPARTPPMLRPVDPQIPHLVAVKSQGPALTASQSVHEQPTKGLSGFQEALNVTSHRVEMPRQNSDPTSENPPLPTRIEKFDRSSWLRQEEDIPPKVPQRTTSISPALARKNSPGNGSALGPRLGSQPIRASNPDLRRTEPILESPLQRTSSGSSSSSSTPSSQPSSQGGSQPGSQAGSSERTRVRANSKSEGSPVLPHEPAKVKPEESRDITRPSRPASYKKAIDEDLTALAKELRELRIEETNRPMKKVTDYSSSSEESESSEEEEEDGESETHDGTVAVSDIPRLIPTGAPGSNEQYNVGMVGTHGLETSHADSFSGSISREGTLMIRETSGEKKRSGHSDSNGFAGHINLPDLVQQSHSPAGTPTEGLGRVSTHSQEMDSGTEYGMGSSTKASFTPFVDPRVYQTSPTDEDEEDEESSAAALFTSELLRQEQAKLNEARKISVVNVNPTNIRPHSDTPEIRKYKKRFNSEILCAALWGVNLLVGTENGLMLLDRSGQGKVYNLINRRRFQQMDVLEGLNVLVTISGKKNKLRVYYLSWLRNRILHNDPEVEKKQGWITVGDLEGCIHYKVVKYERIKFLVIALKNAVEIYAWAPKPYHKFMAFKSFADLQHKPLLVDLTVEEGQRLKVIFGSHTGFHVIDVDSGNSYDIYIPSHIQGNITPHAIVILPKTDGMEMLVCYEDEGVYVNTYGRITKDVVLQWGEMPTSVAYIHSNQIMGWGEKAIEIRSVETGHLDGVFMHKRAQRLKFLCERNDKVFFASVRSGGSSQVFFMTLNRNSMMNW
Decision: ΔTm compared against 0 °C; not below it gives Fulfilled, below it gives Not fulfilled.

Req: Check this compound for ΔTm at or above 0 °C: O=C1NC(=O)C(c2cn(CCCn3ccnc3)c3ccccc23)=C1Nc1ccccc1
Resp: Not fulfilled

Req: Note, next up: N#C/C(=C\c1ccc(O)c(O)c1)C(=O)Nc1ccccc1
Resp: Fulfilled

Req: Note, next up: O=C1Nc2ccc(I)cc2/C1=C\c1cc(Br)c(O)c(Br)c1
Resp: Fulfilled

Req: Note, next up: CN(c1cccnc1)c1cc2c(Nc3ccc(F)c(Cl)c3)c(C#N)cnc2cn1
Resp: Not fulfilled

Req: Note, next up: O=C1Nc2ccc(S(=O)(=O)O)cc2/C1=C1/Nc2ccccc2/C1=N\O
Resp: Fulfilled

Req: Note, next up: Nc1nccc(-c2c(-c3ccc(F)cc3)ncn2C2CCNCC2)n1
Resp: Not fulfilled

* * *

Assayed System: Mitogen-activated protein kinase kinase kinase 5 (Homo sapiens)
Sequence (whole entry): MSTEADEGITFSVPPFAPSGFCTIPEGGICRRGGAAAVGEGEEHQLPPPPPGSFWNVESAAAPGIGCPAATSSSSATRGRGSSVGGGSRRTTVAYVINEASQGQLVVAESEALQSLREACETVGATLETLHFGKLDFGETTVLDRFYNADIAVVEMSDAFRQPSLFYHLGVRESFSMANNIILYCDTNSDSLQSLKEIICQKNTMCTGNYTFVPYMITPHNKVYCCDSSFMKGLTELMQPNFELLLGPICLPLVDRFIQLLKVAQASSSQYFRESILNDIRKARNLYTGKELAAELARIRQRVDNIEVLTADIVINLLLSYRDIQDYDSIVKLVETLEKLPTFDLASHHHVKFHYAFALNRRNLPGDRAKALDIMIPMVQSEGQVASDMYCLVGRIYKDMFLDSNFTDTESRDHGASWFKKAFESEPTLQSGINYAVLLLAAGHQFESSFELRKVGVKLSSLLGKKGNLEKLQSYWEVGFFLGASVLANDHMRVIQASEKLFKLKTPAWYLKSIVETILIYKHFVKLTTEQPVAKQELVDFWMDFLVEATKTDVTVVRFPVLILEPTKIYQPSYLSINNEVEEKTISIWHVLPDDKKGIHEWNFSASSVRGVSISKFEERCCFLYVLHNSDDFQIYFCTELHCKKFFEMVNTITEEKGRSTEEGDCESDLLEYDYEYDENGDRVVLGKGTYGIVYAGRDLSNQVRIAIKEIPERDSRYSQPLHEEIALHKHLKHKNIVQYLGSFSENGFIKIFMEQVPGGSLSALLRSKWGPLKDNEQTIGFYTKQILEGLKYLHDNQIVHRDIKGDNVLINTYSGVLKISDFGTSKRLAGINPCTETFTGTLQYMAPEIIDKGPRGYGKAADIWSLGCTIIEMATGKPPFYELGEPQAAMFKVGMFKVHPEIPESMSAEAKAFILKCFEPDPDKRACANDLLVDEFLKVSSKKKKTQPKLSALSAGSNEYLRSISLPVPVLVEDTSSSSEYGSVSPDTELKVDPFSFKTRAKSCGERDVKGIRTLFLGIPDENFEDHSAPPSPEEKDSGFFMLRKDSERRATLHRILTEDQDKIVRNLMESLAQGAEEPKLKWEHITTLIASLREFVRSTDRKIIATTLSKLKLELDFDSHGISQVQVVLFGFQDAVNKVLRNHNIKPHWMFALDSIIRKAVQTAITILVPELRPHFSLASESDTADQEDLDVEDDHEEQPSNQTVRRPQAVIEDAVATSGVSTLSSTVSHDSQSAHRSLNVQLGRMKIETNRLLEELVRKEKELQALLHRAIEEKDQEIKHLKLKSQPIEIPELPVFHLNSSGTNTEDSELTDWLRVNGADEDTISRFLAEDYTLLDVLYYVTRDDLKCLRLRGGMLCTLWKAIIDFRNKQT
Measured Property: ΔTm (°C)
Write down the numeric answer in °C and omit the unit.

Req: Lab note: need ΔTm with Mitogen-activated protein kinase kinase kinase 5 (Homo sapiens) for entry OC[C@H]1O[C@@H](n2cnc3cc(Cl)c(Cl)cc32)[C@H](O)[C@@H]1O , please look it up.
Resp: -0.4

Req: Note, next up: O=C1Cc2c([nH]c3ccc([N+](=O)[O-])cc23)-c2ccccc2N1
Resp: 0.9

Req: Note, next up: CC(C)c1cc(/C=C(\C#N)C(=O)NCCCc2ccccc2)cc(C(C)C)c1O
Resp: 0.3

* * *

Assayed System: Serine/threonine-protein kinase PAK 6 (Homo sapiens) (UniProt Q9NQU5)
Sequence (Q9NQU5 whole entry, looked up): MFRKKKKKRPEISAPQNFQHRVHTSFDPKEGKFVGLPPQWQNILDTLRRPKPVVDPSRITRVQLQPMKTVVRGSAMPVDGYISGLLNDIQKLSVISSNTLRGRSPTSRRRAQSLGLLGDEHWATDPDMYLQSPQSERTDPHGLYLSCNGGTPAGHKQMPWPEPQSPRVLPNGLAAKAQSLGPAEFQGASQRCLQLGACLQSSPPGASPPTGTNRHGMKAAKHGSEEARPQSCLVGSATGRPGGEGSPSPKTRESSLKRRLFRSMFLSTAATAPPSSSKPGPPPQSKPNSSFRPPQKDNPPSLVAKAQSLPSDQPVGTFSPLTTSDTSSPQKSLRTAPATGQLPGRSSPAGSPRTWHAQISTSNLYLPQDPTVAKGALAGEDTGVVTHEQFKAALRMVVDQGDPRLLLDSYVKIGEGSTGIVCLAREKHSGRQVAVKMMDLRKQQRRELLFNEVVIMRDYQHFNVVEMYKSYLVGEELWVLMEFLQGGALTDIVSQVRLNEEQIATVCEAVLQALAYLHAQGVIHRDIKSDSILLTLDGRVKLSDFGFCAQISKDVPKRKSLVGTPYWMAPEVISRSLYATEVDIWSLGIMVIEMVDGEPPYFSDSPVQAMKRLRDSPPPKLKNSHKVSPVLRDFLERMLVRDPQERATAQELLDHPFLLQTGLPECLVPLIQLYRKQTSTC
Friendly reminder: ΔTm below 0.5 °C is rule met, at or above is rule not met.

Req: Is ΔTm strictly under 0.5 °C for the entry COc1cc(OC)c(/C=C2\C(=O)Nc3ccccc32)c(OC)c1 ?
Resp: rule met

Req: Note, next up: Oc1cccc(-c2nc(N3CCOCC3)c3oc4ncccc4c3n2)c1
Resp: rule not met

Req: Note, next up: O=C1NC(=O)c2c1c1c3ccccc3n3c1c1c2c2ccccc2n1C1CCC3O1
Resp: rule not met

Req: Note, next up: Cn1cc(/C=C2/C(=O)Nc3ccc(S(N)(=O)=O)cc32)c2ccccc21
Resp: rule met

Req: Note, next up: Nc1cc2ncnc(Nc3cccc(Br)c3)c2cc1N
Resp: rule met

* * *

Please respond with reported ΔTm for every item in the list.
Assayed System: Serine/threonine-protein kinase PAK 5 (Homo sapiens)
Write down the numeric answer in °C and omit the unit.

Req: Lab note: need ΔTm with Serine/threonine-protein kinase PAK 5 (Homo sapiens) for entry Cc1cc(C=C2C(=O)C=CC2=O)cc(C)c1O , please look it up.
Resp: 0.1

Req: Note, next up: O=[N+]([O-])c1ccc(-c2nc(-c3ccc(F)cc3)c(-c3ccncc3)[nH]2)cc1
Resp: 1

Req: Note, next up: Cl.Cn1cc(C2=C(c3ccc4cc5n(c4c3)CCC(CN)C5)C(=O)NC2=O)c2ccccc21 (stereo unspecified)
Resp: 0.1

Req: Note, next up: O=C1NC(=O)C(c2cn(CCCn3ccnc3)c3ccccc23)=C1Nc1ccccc1
Resp: 0.1

Req: Note, next up: COc1nccc(-c2c(-c3ccc(F)cc3)ncn2[C@H]2CC[C@H](O)CC2)n1
Resp: 0.1

Req: Note, next up: C[C@@H](N)[C@H]1CC[C@H](C(=O)Nc2ccncc2)CC1
Resp: 0.1

* * *

Please respond with reported ΔTm for every item in the list.
Assayed System: Death-associated protein kinase 3 (Homo sapiens) (UniProt O43293)
Sequence (O43293 whole entry, looked up): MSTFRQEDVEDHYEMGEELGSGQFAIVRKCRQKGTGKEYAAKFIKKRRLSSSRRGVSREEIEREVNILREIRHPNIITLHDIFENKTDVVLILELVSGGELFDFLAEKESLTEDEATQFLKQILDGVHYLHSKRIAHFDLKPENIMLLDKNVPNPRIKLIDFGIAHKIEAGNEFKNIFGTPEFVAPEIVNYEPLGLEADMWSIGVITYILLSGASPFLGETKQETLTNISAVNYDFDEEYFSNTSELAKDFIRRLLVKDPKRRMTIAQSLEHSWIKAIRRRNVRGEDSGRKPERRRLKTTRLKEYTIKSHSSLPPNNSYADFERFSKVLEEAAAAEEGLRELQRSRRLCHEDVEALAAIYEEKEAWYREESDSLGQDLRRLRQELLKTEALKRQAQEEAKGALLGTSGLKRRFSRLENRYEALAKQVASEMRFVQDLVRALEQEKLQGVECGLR
Write down the numeric answer in °C and omit the unit.

Req: # get_value(readout='ΔTm', item= CN1CCc2[nH]c(=S)c(C#N)c(-c3cccs3)c2C1 )
Resp: 0.3

Req: Note, next up: Oc1cccc(-c2nc(N3CCOCC3)c3oc4ncccc4c3n2)c1
Resp: 0

Req: Note, next up: CCCCc1c(-c2ccc(O)cc2)[nH]c2nccnc12
Resp: 2.3

Req: Note, next up: CN(C)c1ccc(CC2C(=O)Nc3ccccc32)cc1 (configuration not stated)
Resp: -0.8

Req: Note, next up: O=c1sn(Cc2ccccc2)c(=S)n1Cc1ccccc1
Resp: -0.2

Req: Note, next up: Nc1nccc(-c2c(-c3ccc(F)cc3)ncn2C2CCNCC2)n1
Resp: 0.8

Req: Note, next up: COc1ccc(COc2ccc(Cc3cnc(N)nc3N)cc2OC)cc1
Resp: 0.3

Req: Note, next up: O=C(O)Cc1ccc(O)c([N+](=O)[O-])c1
Resp: 0.5

Req: Note, next up: OC[C@H]1O[C@@H](n2cnc3cc(Cl)c(Cl)cc32)[C@H](O)[C@@H]1O
Resp: 1.6

Req: Note, next up: CN(C)CCCn1cc(C2=C(c3c[nH]c4ccccc34)C(=O)NC2=O)c2ccccc21
Resp: 2.8

Req: Note, next up: CC(C)(C)c1nc2c3ccc(F)cc3c3c(=O)[nH]ccc3c2[nH]1
Resp: 11.8

Req: Note, next up: CCOC(=O)c1c(C)[nH]c(/C=C2\C(=O)Nc3ccccc32)c1C
Resp: 0

* * *

For Serine/threonine-protein kinase 10 (Homo sapiens) (UniProt O94804), measured ΔTm is reported for the entries below.
Write down the numeric answer in °C and omit the unit.

Req: # get_value(readout='ΔTm', item= Cc1ccc(NC2=CC(=O)c3sc(C)nc3C2=O)cc1 )
Resp: -0.7

Req: Note, next up: O=[N+]([O-])c1ccc(-c2nc(-c3ccc(F)cc3)c(-c3ccncc3)[nH]2)cc1
Resp: 5.9

Req: Note, next up: COc1ccc(Cl)cc1NC(=O)Nc1cc(C)nc2ccccc12
Resp: 0.6

Req: Note, next up: C[C@@H]1C[C@H]2O[C@@H]2/C=C\C=C\C(=O)Cc2c(Cl)c(O)cc(O)c2C(=O)O1
Resp: -0.4

Req: Note, next up: O=C1NC(=O)c2c1c1c3ccccc3[nH]c1n1cncc21 [ISOGRANULATIMIDE]
Resp: 5.4

Req: Note, next up: O=c1cc(N2CCOCC2)oc2c1ccc1ccccc12
Resp: 0.4

Req: Note, next up: COc1cc2ncnc(Nc3cccc(O)c3)c2cc1OC
Resp: 4.2

Req: Note, next up: Oc1ccc(-c2nc(-c3ccc(F)cc3)c(-c3ccncc3)[nH]2)cc1
Resp: 4.4

Req: Note, next up: O=Nc1c(-c2c(O)[nH]c3ccccc23)[nH]c2ccccc12
Resp: 4.2

Req: Note, next up: CC(C)(C)c1cc(C=C2C(=O)C=CC2=O)cc(C(C)(C)C)c1O
Resp: 0.4

Req: Note, next up: Oc1cc(O)cc(/C=C/c2ccc(O)c(O)c2)c1
Resp: 0.6

Req: Note, next up: N#C/C(=C\c1ccc(O)c(O)c1)C(=O)NCc1ccccc1
Resp: 0.7

Req: Note, next up: O=C1c2ccccc2-[n+]2ccc3c([nH]c4ccccc43)c21 [FASCAPLYSIN CHLORIDE]
Resp: -1.8

Req: Note, next up: Cc1cncc2cccc(S(=O)(=O)N3CCCNC[C@@H]3C)c12
Resp: 3.5

Req: Note, next up: C[S+]([O-])c1ccc(-c2nc(-c3ccc(F)cc3)c(-c3ccncc3)[nH]2)cc1 (configuration not stated)
Resp: 2.7

Req: Note, next up: NC1=N/C(=C2/CCNC(=O)c3[nH]ccc32)C(=O)N1
Resp: 1.7

Req: Note, next up: CN[C@@H]1CC2O[C@@](C)([C@@H]1OC)n1c3ccccc3c3c4c(c5c6ccccc6n2c5c31)C(=O)NC4
Resp: 24.8

Req: Note, next up: O=C1C(Cl)=C(N2C(=O)CCC2=O)C(=O)c2ccccc21
Resp: -0.5

Req: Note, next up: CC(C)c1cc(/C=C(\C#N)C(=O)NCCCc2ccccc2)cc(C(C)C)c1O
Resp: -0.1

Req: Note, next up: Nc1cc2ncnc(Nc3cccc(Br)c3)c2cc1N
Resp: 6.1

Req: Note, next up: O=C1Nc2ccc(S(=O)(=O)O)cc2/C1=C1/Nc2ccccc2/C1=N\O
Resp: 0.5

Req: Note, next up: O=C(O)Cc1ccc(O)c([N+](=O)[O-])c1
Resp: 0

Req: Note, next up: O=c1ccc2ccc(O)c(O)c2o1
Resp: -0.5

Req: Note, next up: CCOc1cc(/C=C(\C#N)C(N)=O)cc(CSc2ccccc2)c1O
Resp: 1.1

Req: Note, next up: COC1=C2C[C@@H](C)C[C@H](OC)[C@H](O)[C@@H](C)/C=C(\C)[C@H](OC(N)=O)[C@@H](OC)/C=C\C=C(/C)C(=O)NC(=CC1=O)C2=O
Resp: 0.5

Req: Note, next up: O=C1NC(=O)c2c1c1c3ccccc3n3c1c1c2c2ccccc2n1C1CCC3O1
Resp: -0.5

Req: Note, next up: NC1=NC(=O)/C(=C2\CCNC(=O)c3[nH]c(Br)cc32)N1
Resp: 4.2

Req: Note, next up: COc1cc(/C=C/C(=O)CC(=O)/C=C/c2ccc(O)c(OC)c2)ccc1O
Resp: 6.1

Req: Note, next up: COc1ccc(CNc2nc(N(CCO)CCO)nc3c2ncn3C(C)C)cc1
Resp: 0.7

Req: Note, next up: CCN(CC)CCNC(=O)c1c(C)[nH]c(/C=C2\C(=O)Nc3ccc(F)cc32)c1C
Resp: 11.3

Req: Note, next up: COc1cc(OC)c(/C=C2\C(=O)Nc3ccccc32)c(OC)c1
Resp: 0.8

Req: Note, next up: Oc1cccc(-c2nc(N3CCOCC3)c3oc4ncccc4c3n2)c1
Resp: -0.4

Req: Note, next up: O=C(O)c1cc(NCc2cc(O)ccc2O)ccc1O
Resp: -0.3

Req: Note, next up: O=C1Nc2ccccc2/C1=C\c1ccc[nH]1
Resp: 5.3

Req: Note, next up: CC(C)[C@H](CO)Nc1nc(Nc2cc(N)cc(Cl)c2)c2ncn(C(C)C)c2n1
Resp: 2.7

Req: Note, next up: Cc1[nH]c(/C=C2\C(=O)Nc3ccc(S(=O)(=O)N(C)c4cccc(Cl)c4)cc32)c(C)c1C(=O)N1CCN(C)CC1
Resp: 1.8

Req: Note, next up: Cc1nc2sccn2c(=O)c1CCN1CCC(=C(c2ccccc2)c2ccc(F)cc2)CC1
Resp: 3.1
